# Ki listing for each entry below
Target: human growth hormone secretagogue receptor (hGHS-R1a) (Homo sapiens)
Construct: purchased PerkinElmer BioSignal #RBHGHSM, lot#1887; host or cells: HEK-293, stably transfected
Sequence (Q92847 whole entry): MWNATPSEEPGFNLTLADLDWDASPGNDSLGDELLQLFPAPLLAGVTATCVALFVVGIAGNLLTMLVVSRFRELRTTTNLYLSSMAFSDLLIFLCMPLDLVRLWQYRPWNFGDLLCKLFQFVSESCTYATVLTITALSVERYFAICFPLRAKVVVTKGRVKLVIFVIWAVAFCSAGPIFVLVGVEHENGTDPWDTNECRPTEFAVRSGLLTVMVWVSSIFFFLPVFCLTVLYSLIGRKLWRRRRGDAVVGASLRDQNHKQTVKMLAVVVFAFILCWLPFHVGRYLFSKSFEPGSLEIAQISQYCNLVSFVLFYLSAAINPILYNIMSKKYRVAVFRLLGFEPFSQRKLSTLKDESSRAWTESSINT
Assay: Competitive radioligand binding assay (ghrelin receptor), [125I]-ghrelin displacement
Conditions: binding activity at the human ghrelin receptor; [125I]-ghrelin displacement, hGHS-R1a/HEK-293 membranes; read-out: Ki

These solved cases illustrate the format of a correct answer.
Challenge: Please supply the value of reported Ki for the item CCCC1NCCOc2ccccc2CCCNC(=O)C(Cc2ccccc2)NC(=O)C(Cc2ccccc2)NC1=O (stereo not shown)
Response given: 1000 to 10000 nM

Challenge: Please supply the value of reported Ki for the item O=C1NC2(CCCC2)C(=O)NC(Cc2ccccc2)C(=O)NCC=Cc2ccccc2OCCNC1Cc1cscn1 (stereo not shown)
Response given: 100 to 10000 nM

Challenge: Please supply the value of reported Ki for the item CCC(C)C1NCCCCC=CCCNC(=O)C(Cc2ccccc2)NC(=O)C(C)N(C)C1=O (stereo not shown)
Response given: > 10000 nM

Challenge: Please supply the value of reported Ki for the item CCC(C)C1NCCOc2ccccc2C=CCNC(=O)C(Cc2ccccc2)NC(=O)C(C)N(C)C1=O (stereo not shown)
Response given: 0.1 to 10 nM

Challenge: Please supply the value of reported Ki for the item CC(C)CC1NCCOc2ccccc2C=CCNC(=O)C(C(c2ccccc2)c2ccccc2)NC(=O)C2(CCCC2)NC1=O (stereo not shown)
Response given: > 1000 nM

Challenge: Please supply the value of reported Ki for the item CC(C)CC1NCCOc2cccnc2CCCNC(=O)C(Cc2ccccc2)NC(=O)C2(CCCC2)NC1=O (stereo not shown)
Response given: 1000 to 10000 nM

Further cases:
Challenge: Please supply the value of reported Ki for the item CCC(C)C1NCCCCC=CCNC(=O)C(Cc2ccccc2)NC(=O)C(C)N(C)C1=O (stereo not shown)
Response given: > 10000 nM

Cited source for all entries: patent USRE42013E1
